# experimental_target: RSV-F protein of RSV A2 virus (as carried by the live virus in the neutralisation assay) (human respiratory syncytial virus, …, UniProt P03420 26-574)
# Sequence (P03420 26-574): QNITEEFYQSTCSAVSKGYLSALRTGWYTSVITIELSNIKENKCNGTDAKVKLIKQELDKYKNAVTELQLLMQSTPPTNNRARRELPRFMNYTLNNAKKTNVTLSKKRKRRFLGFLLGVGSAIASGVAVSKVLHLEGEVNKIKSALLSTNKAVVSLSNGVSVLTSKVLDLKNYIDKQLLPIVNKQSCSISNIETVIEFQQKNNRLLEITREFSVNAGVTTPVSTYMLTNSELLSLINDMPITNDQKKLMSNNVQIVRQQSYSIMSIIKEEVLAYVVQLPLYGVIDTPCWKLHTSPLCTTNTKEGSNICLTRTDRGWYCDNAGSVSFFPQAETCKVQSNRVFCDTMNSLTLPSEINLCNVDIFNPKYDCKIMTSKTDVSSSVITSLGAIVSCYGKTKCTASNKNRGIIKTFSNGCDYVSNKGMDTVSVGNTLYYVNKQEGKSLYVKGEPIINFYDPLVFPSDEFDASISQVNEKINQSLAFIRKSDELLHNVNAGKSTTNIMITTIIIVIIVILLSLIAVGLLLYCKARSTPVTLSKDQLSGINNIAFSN
# assay_info: cell-based or functional assay
Each record here notes measured Absolute IC50, neutralizing RSV A2 (HEp-2 cells, indirect ELISA).
measure_name: Absolute IC50, neutralizing RSV A2 (HEp-2 cells, indirect ELISA) (µg/mL)

{"binder": "R10-19B2QH (antibody, human IgG1, kappa, V domains shown) VH: EVKLQESGPGMLQPSQTLSLTCSFSGFSLSTSGMGVSWIRQPSGKGLEWLAHIYWDDDKNFNPSLRSRLIISKDPSRNQVFLEITSVDTADTATYFCARKLYNDYDYILDYWGQGTSVTVSS VL: DIVMTQAAFSNPVTLGTSASISCRSSKSLLHSNGITYLCWFLQKPGQSPQLLIYQMSNLASGVPDRFSGSGSGTDFTLRISRVEAEDVGVYYCAQNLELWTFGGGTKLEIKR", "measured_number": 0.012}
{"binder": "R3-16A10QH (antibody, human IgG1, kappa, V domains shown, also called chimeric antibody of R3-16A10) VH: EVKLEESGPELVKPGASVKISCKTSGYAFSDSWMNWVKQRPGQGLEWIGRIYPGDGDTQYNGKVKGKATLTADKSSSTAYMQVSSLTSVDSAVYFCAREGGMITSSGYYHALDYWGQGTSVTVSS VL: DIVMTQSPASLAVSLGQRTTISCRASESVDSYGNSFLNWYQQKPGQPPKVLIYLASNLESGVPARFSGSGSRTDFTLIIDPVEADDAATYYCQQNNEDPTFGGGTKLEIKR", "measured_number": 0.0118}
{"binder": "R10-6A11QH (antibody, human IgG1, kappa, V domains shown, also called chimeric antibody of R10-6A11) VH: QVKLEESGPGILQPSQTLSLTCSFSGFSLSTSGMGVSWIRQPSGKGLEWLAHIYWDDDKNYNPSLKSRLTISKDTSRNQVFLKITSVDTADTATYYCARKIYYDYDYALDYWGQGTSVTVSS VL: DIVMTQAAFSNPVTLGTSASISCRSSKSLLHSNGITYLCWFLQKPGQSPQLLIYQMSNLASGVPDRFSGSGSGTDFTLRISRVEAEDVGVYYCAQNLELWTFGGGTKLEIKR", "measured_number": 0.00745}
